study target: GST tagged Bcl w delta C29 protein (Homo sapiens)
assay protocol: Alphascreen competition with Bim26mer, GST detection system
Type: binding
run conditions: Bcl-w ΔC29, compared to the linear 16-mer
measured property: decrease in binding affinity (fold)
The reply should be a number in fold, with the unit left off.

substance: Ac-IWIAQELRRAGDEFNA-NH2 [Peptide K]
result units: fold
decrease in binding affinity: 3

Kindly review the next substance as well.
GET /values?readout=decrease in binding affinity&item= Ac-IWAAQELRRIGDEFNA-NH2 [Peptide I]
100

###

Quick reference: IC50 of the listed items.
study target: GST tagged Bcl w delta C29 protein (Homo sapiens)
assay protocol: Alphascreen competition with Bim26mer, GST detection system
Format: binding
run conditions: substituted 16-mers, Example 9; read-out: IC50 nM Bcl-w ΔC29
Hi! Could you send only the number? It should be in nM, unit omitted.

Some substances with known IC50 results, for comparison:
substance: Ac-IFIAQELRRIGDEFNA-NH2 [N]
IC50 / nM: 11
//
substance: Ac-AWIAQELRRIGDEFNA-NH2 [O]
IC50 / nM: 22
//
substance: Ac-IWAAQELRRIGDEFNA-NH2 [Peptide I]
IC50 / nM: 360
//
substance: Ac-IWIAQELRRIGDEANA-NH2 [Peptide L]
IC50 / nM: 3500

Param item = Ac-IWIAQELRRAGDEFNA-NH2 [Peptide K] ; retrieve measured IC50.
7.3

Reported IC50 for Ac-IWIAQELRRIGDEFNN-NH2 [Peptide U] : what is it?
5.8

// returns reported IC50 for input Ac-IWIAQELRRIGDEFAA-NH2 [Peptide S]
3.3

Recorded IC50 of Ac-IAIAQELRRIGDEFNA-NH2 [P] , please.
42

Need IC50 of Ac-IWIAQQLRRIGDQFNA-NH2 [H] , thanks.
3.3

Which IC50 value is on record for Ac-IWIAQEARRIGDEFNA-NH2 [Peptide J] ?
3700

Entry Ac-IWAAQEARRAGDEANA-NH2 [M] : reported IC50 = ?
64000

Can you share its IC50? I mean this substance: Ac-IWIAQELRRIGDEFAN-NH2 [Peptide R]
12

Please look up its IC50: Ac-IRIAQELRRIGDEFNA-NH2 [Q]
17

###

assay protocol: Circular dichroism, alpha-helical content of peptides
Format: physicochemical
run conditions: 30% aqueous trifluoroethanol
Description: Circular dichroism spectra were obtained using a Jasco Model J-710 spetropolarimeter at 20° C. using the following parameters: path length, 2 mm; step resolution, 0.1 nm; speed, 20 nm/min; accumulation, 4; response, 1 second; bandwidth, 1.0 nm. The peptides were analysed at a concentration of 0.5 mg/mL in 30% aqueous TFE. The alpha-helical content of the peptides were determined by methods described in Yang et al (1986), involving comparisons of spectra with model helical peptides.
*1 amine or outer side, *2 acyl side, *3 side chain or, on linkers, in order; H or OH if unused. Where a SMILES comes first, the peptide text is derived from it. Bridges are numbered along the chain shown (N, C = ends). NH(CH2)5NH = C(CCN[*:1])CCN[*:2]
measured property: % Helicity (%)
Numbers only here, please. The scale is %.

molecule: CC[C@H](C)[C@H](NC(C)=O)C(=O)N[C@@H](C)C(=O)N[C@@H](CCC(N)=O)C(=O)N[C@H]1CCC(=O)NCCCCCNC(=O)CC[C@@H](C(=O)N[C@@H](Cc2ccccc2)C(N)=O)NC(=O)[C@H](CC(=O)O)NC(=O)CNC(=O)[C@H]([C@@H](C)CC)NC(=O)[C@H](CCCNC(=N)N)NC(=O)[C@H](CCCNC(=N)N)NC(=O)[C@H](CC(C)C)NC1=O [Peptide B, Acetyl-IAQ(E1)LRRIGD(E2)F-amide] (Ac-IAQELRRIGDEF-NH2; linker 4-11 via NH(CH2)5NH)
% Helicity / %: 28

Then there is this molecule:
I have this molecule here, CC[C@H](C)[C@H](NC(=O)[C@@H]1CCC(=O)NCCCCCNC(=O)CC[C@H](NC(C)=O)C(=O)N[C@@H]([C@@H](C)CC)C(=O)N[C@@H](C)C(=O)N[C@@H](CCC(N)=O)C(=O)N[C@@H](CCC(=O)O)C(=O)N[C@@H](CC(C)C)C(=O)N[C@@H](CCCNC(=N)N)C(=O)N1)C(=O)NCC(=O)N[C@@H](CC(=O)O)C(=O)N[C@@H](CCC(=O)O)C(=O)N[C@@H](Cc1ccccc1)C(N)=O [A, Ac-E-IAQELR-E-IGDEF-NH2] (Ac-EIAQELREIGDEF-NH2; linker 1-8 via NH(CH2)5NH) , and I need its recorded % Helicity.
33

###

study target: GST tagged Bcl w delta C29 protein (Homo sapiens, UniProt Q92843)
assay protocol: Alphascreen competition with Bim26mer, GST detection system
Assay type: binding
run conditions: competition with biotinylated Bim-BH3 peptide; 12-mers, Example 7; read-out: IC50 (nM) Bcl-w ΔC29
*1 amine or outer side, *2 acyl side, *3 side chain or, on linkers, in order; H or OH if unused. Where a SMILES comes first, the peptide text is derived from it. Bridges are numbered along the chain shown (N, C = ends). Hexamethylenediamine = C(CCCN[*:2])CCN[*:1]; NH(CH2)5NH = C(CCN[*:1])CCN[*:2]; X1 = O=C(CN[*:1])NCCN[*:2]
measured property: IC50 (nM)
Give the value, in units of nM, as a plain number.

Worked examples, 3 molecules total:
molecule: CC[C@H](C)[C@H](NC(C)=O)C(=O)N[C@@H](C)C(=O)N[C@@H](CCC(N)=O)C(=O)N[C@H]1CCC(=O)NCC(=O)NCCNC(=O)CC[C@@H](C(=O)N[C@@H](Cc2ccccc2)C(N)=O)NC(=O)[C@H](CC(=O)O)NC(=O)CNC(=O)[C@H]([C@@H](C)CC)NC(=O)[C@H](CCCNC(=N)N)NC(=O)[C@H](CCCNC(=N)N)NC(=O)[C@H](CC(C)C)NC1=O [D] (Ac-IAQELRRIGDEF-NH2; linker 4-11 via X1)
IC50, nM: 160
//
molecule: CC[C@H](C)[C@H](NC(=O)[C@@H]1CCC(=O)NCCCCCNC(=O)CC[C@H](NC(C)=O)C(=O)N[C@@H]([C@@H](C)CC)C(=O)N[C@@H](C)C(=O)N[C@@H](CCC(N)=O)C(=O)N[C@@H](CCC(=O)O)C(=O)N[C@@H](CC(C)C)C(=O)N[C@@H](CCCNC(=N)N)C(=O)N1)C(=O)NCC(=O)N[C@@H](CC(=O)O)C(=O)N[C@@H](CCC(=O)O)C(=O)N[C@@H](Cc1ccccc1)C(N)=O [A, Ac-E-IAQELR-E-IGDEF-NH2] (Ac-EIAQELREIGDEF-NH2; linker 1-8 via NH(CH2)5NH)
IC50, nM: 1800
//
molecule: CC[C@H](C)[C@H](NC(C)=O)C(=O)N[C@@H](C)C(=O)N[C@@H](CCC(N)=O)C(=O)N[C@H]1CCC(=O)NCCCCCCNC(=O)CC[C@@H](C(=O)N[C@@H](Cc2ccccc2)C(N)=O)NC(=O)[C@H](CC(=O)O)NC(=O)CNC(=O)[C@H]([C@@H](C)CC)NC(=O)[C@H](CCCNC(=N)N)NC(=O)[C@H](CCCNC(=N)N)NC(=O)[C@H](CC(C)C)NC1=O [C, Ac-IAQ-E-LRRIGD-E-F-NH2] (Ac-IAQELRRIGDEF-NH2; linker 4-11 via Hexamethylenediamine)
IC50, nM: 120

Then there is this molecule:
Please give the measured IC50 for this molecule: CC[C@H](C)[C@H](NC(C)=O)C(=O)N[C@@H](C)C(=O)N[C@@H](CCC(N)=O)C(=O)N[C@H]1CCC(=O)NCCCCCNC(=O)CC[C@@H](C(=O)N[C@@H](Cc2ccccc2)C(N)=O)NC(=O)[C@H](CC(=O)O)NC(=O)CNC(=O)[C@H]([C@@H](C)CC)NC(=O)[C@H](CCCNC(=N)N)NC(=O)[C@H](CCCNC(=N)N)NC(=O)[C@H](CC(C)C)NC1=O [Peptide B, Acetyl-IAQ(E1)LRRIGD(E2)F-amide] (Ac-IAQELRRIGDEF-NH2; linker 4-11 via NH(CH2)5NH)
150

###

assay protocol: Circular dichroism, alpha-helical content of peptides
Format: physicochemical
run conditions: 30% aqueous trifluoroethanol
Experimental: Circular dichroism spectra were obtained using a Jasco Model J-710 spetropolarimeter at 20° C. using the following parameters: path length, 2 mm; step resolution, 0.1 nm; speed, 20 nm/min; accumulation, 4; response, 1 second; bandwidth, 1.0 nm. The peptides were analysed at a concentration of 0.5 mg/mL in 30% aqueous TFE. The alpha-helical content of the peptides were determined by methods described in Yang et al (1986), involving comparisons of spectra with model helical peptides.
*1 amine or outer side, *2 acyl side, *3 side chain or, on linkers, in order; H or OH if unused. Where a SMILES comes first, the peptide text is derived from it. Bridges are numbered along the chain shown (N, C = ends). Hexamethylenediamine = C(CCCN[*:2])CCN[*:1]
measured property: % Helicity (%)
Output spec: scalar in %, unitless text.

Consider the compound shown here: CC[C@H](C)[C@H](NC(C)=O)C(=O)N[C@@H](C)C(=O)N[C@@H](CCC(N)=O)C(=O)N[C@H]1CCC(=O)NCCCCCCNC(=O)CC[C@@H](C(=O)N[C@@H](Cc2ccccc2)C(N)=O)NC(=O)[C@H](CC(=O)O)NC(=O)CNC(=O)[C@H]([C@@H](C)CC)NC(=O)[C@H](CCCNC(=N)N)NC(=O)[C@H](CCCNC(=N)N)NC(=O)[C@H](CC(C)C)NC1=O [C, Ac-IAQ-E-LRRIGD-E-F-NH2] (Ac-IAQELRRIGDEF-NH2; linker 4-11 via Hexamethylenediamine) What is its recorded % Helicity?
39
